Listed here: items and their measured GI50.
System: A549
procedure-details: NCI tumour cell line growth inhibition, 48 h
The source made the active and inactive calls. Rule as the data show it: active = GI50 up to about 1.1 µM and inactive = higher.

Solved cases below.
C/C(=N\NC(=S)Nc1ccc([N+](=O)[O-])cc1S(=O)(=O)O)c1ccccn1	37.7 µM (inactive)
Cc1ccc2c(c1)C(c1cccc3ccccc13)OC2=O (configuration not stated)	89.3 µM (inactive)
COc1cc(CNC(=O)CCCCCCCCCCSC#N)ccc1O	19.1 µM (inactive)
COc1ccc2c(c1)[n+]([O-])c(C(=O)CC(=O)C(=O)Nc1cccc(Cl)c1C)c(C)[n+]2[O-]	> 100 µM (inactive)
O=C1/C(=C/c2ccc(Cl)cc2)Oc2ccccc21	18.7 µM (inactive)

Name the reported GI50 value associated with the compound CC(=O)OC1=c2ccccc2=C(O)C2C1C=NN2C(C)=O (configuration not stated)
> 100 µM (inactive)

Name the reported GI50 value associated with the compound O=C(/C=C/c1ccc2c(c1)OCO2)c1ccc(O)cc1
17.4 µM (inactive)

Name the reported GI50 value associated with the compound O=C(Nc1nncs1)NS(=O)(=O)n1cnc2ccccc21
> 100 µM (inactive)

Name the reported GI50 value associated with the compound N#CC(N)c1ccc(OCCCCCCCCCCOc2ccc(C(N)C#N)cc2)cc1 (configuration not stated)
> 100 µM (inactive)

Name the reported GI50 value associated with the compound CCCC(=O)Nc1cn(COC)c(C(=O)N2C[C@H]3C[C@@]34C2=CC(=O)c2[nH]cc(C)c24)n1
12.2 µM (inactive)

Name the reported GI50 value associated with the compound CC1(C)O[C@H]2OC(CO)C(N=[N+]=[N-])[C@H]2O1 (some centres not stated)
> 100 µM (inactive)

Name the reported GI50 value associated with the compound Cc1cccc2c1c(=O)c1c(O)c3c(cc1n2C)OC(C)(C)C=C3
> 10 µM (inactive)

---

Test system: TK-10
procedure-details: NCI tumour cell line growth inhibition, 48 h
Active and inactive are the calls of the source. Rule as the data show it: active = GI50 up to about 1.1 µM and inactive = higher.
Listed here: items and their measured GI50.

Solved cases below.
C=C1C(=O)O[C@H]2C[C@@]3(COC(C)=O)C=COC=C(COC(=O)C(C)C)C3CC12 (stereo partly specified)	> 100 µM (inactive)
O=c1cc[nH]c2c1ccc1ncccc12	> 100 µM (inactive)
O=C(CNC(=O)c1ccccc1)Oc1c(Cl)c(Cl)c(Cl)c(Cl)c1Cl	40.4 µM (inactive)
CN(C(=O)C1CCCCCC1=O)c1ccccc1Cl (stereo unspecified)	> 100 µM (inactive)
Fc1cccc(F)c1C1SCc2nc3ccccc3n21 (stereo unspecified) [THIAZOLOBENZIMIDAZOLE]	61.4 µM (inactive)
CCC12CCCN(Cc3ccccc3)C1c1c([nH]c3ccccc13)C(C(=O)OC)C2 (stereo unspecified)	> 10 µM (inactive)

Name the reported GI50 value associated with the molecule O=S(=O)(c1ccccc1)N1CCN(S(=O)(=O)c2ccccc2)c2ccccc21
> 100 µM (inactive)

Name the reported GI50 value associated with the molecule CC1CN(c2cc3c(cc2F)c(=O)c(C(=O)O)cn3-c2ccc(F)cn2)CC(C)N1 (stereo unspecified)
> 100 µM (inactive)

Name the reported GI50 value associated with the molecule COc1ccc(C=O)c(NC(=O)C(C)C)c1
85.7 µM (inactive)

Name the reported GI50 value associated with the molecule CC(=O)OC1=c2ccccc2=C(O)C2C1C=NN2C(C)=O (stereo unspecified)
> 100 µM (inactive)

Name the reported GI50 value associated with the molecule O=C(O)C(Cc1ccc2c(c1)CCC2)(Cc1ccc2c(c1)CCC2)C(=O)O
> 100 µM (inactive)
